molecular target: SARS2 protease (Severe acute respiratory syndrome coronavirus 2, UniProt P0DTD1); construct: SARS2 protease was added to a final concentration of 30 nM; assay: SARS-CoV-2 protease inhibition assay (SARS2 FRET protease assay); type: biochemical; settings: IC50 (μM), SARS2 protease 30 nM, peptide substrate 1.3 μM, 120 minutes at 37° C., compounds 20 μM to 0.075 nM
Labelling field: enter 1 if recorded IC50 is less than 0.09 µM. Enter 0 if it equals or exceeds that cut-off.

compound	group_label
CC(C)C[C@H](NC(=O)OC(c1ccccc1)C(F)(F)c1cccc(C2CCC2)c1)C(=O)N[C@H](C=O)C[C@@H]1CCNC1=O (stereo partly drawn) [Compound A314]	1
CCCC[C@H](NC(=O)O[C@H](c1ccc(F)cc1)C(F)(F)c1cccc(Cl)c1)C(=O)N[C@@H](C[C@@H]1CCNC1=O)C(=O)C(=O)NC1CC1 [Compound A200]	1
CCC(CC)(c1cccc(Cl)c1)C(OC(=O)N[C@@H](CC(C)C)C(=O)N[C@H](C=O)C[C@@H]1CCNC1=O)c1ccc(Cl)cc1 (stereo partly drawn) [Compound A46]	0
CCCC[C@H](NC(=O)OC(c1cccc(F)c1)C1(c2cccc(Cl)c2)CC1)C(=O)N[C@H](C=O)C[C@@H]1CCNC1=O (stereo partly drawn) [Compound A96]	1
O=C[C@H](C[C@@H]1CCNC1=O)NC(=O)[C@H](CC1CCCC1)NC(=O)OC(c1ccccc1)C(F)(F)c1cccc(Cl)c1 (stereo partly drawn) [Compound A93]	1
CCNC(=O)C(=O)[C@H](C[C@@H]1CCNC1=O)NC(=O)[C@H](CC1CCCC1)NC(=O)OC(c1ccccc1)C(F)(F)c1cccc(Cl)c1 (stereo partly drawn) [Compound A117]	1
CC[C@@H](C)C[C@H](NC(=O)O[C@@H](c1ccccc1)C(F)(F)c1cccc(Cl)c1)C(=O)N[C@@H](C[C@@H]1CCNC1=O)C(=O)C(=O)NC1CC1 [Compound A312]	0
CCCCC[C@H](NC(=O)O[C@H](c1ccccc1)C(F)(F)c1cccc(Cl)c1)C(=O)N[C@H](C=O)C[C@@H]1CCNC1=O [Compound A218]	1
CCCC[C@H](NC(=O)O[C@H](c1ccccc1)C(C)(C)c1cccc(Cl)c1)C(=O)N[C@H](C=O)C[C@@H]1CCNC1=O [Compound A62]	0
CCCC(=O)OC([C@H](C[C@@H]1CCNC1=O)NC(=O)[C@H](CC1CCCCC1)NC(=O)O[C@H](c1ccccc1)C(F)(F)c1cccc(Cl)c1)S(=O)(=O)O (stereo partly drawn) [Compound A186]	0
CCCC[C@H](NC(=O)OC(c1ccccc1)C1(c2cccc(Cl)c2)CC1)C(=O)N[C@@H](C[C@@H]1CCNC1=O)C(=O)C(=O)NC1CC1 (stereo partly drawn) [Compound A136]	1

====

target: SARS2 protease (Severe acute respiratory syndrome coronavirus 2, UniProt P0DTD1); construct: SARS2 protease was added to a final concentration of 30 nM; test: SARS-CoV-2 protease inhibition assay (SARS2 FRET protease assay); type: biochemical; settings: IC50 (μM), SARS2 protease 30 nM, peptide substrate 1.3 μM, 120 minutes at 37° C., compounds 20 μM to 0.075 nM

compound	unit_of_measure	IC50
O=C(N[C@@H](CC1CC1)C(=O)N[C@@H](C[C@@H]1CCNC1=O)C(=O)C(=O)NC1CC1)OC(c1ccccc1)C(F)(F)c1cccc(Cl)c1 (stereo partly drawn) [Compound A94]	µM	0.0123
O=C[C@H](C[C@@H]1CCNC1=O)NC(=O)[C@H](CC1CCCCC1)NC(=O)OC(c1ccccc1)C(F)(F)c1cccc(Cl)c1 (stereo partly drawn) [Compound A20]	µM	0.0003
O=C[C@H](C[C@@H]1CCNC1=O)NC(=O)[C@H](CC1CC1)NC(=O)O[C@H](c1ccccc1)C(F)(F)c1cccc(Cl)c1 [Compound A157]	µM	0.0002

====

biological target: SARS2 protease (Severe acute respiratory syndrome coronavirus 2); construct: SARS2 protease was added to a final concentration of 30 nM; assay: SARS-CoV-2 protease inhibition assay (SARS2 FRET protease assay); type: biochemical; conditions: IC50 (μM), SARS2 protease 30 nM, peptide substrate 1.3 μM, 120 minutes at 37° C., compounds 20 μM to 0.075 nM
endpoint: IC50

compound	measured_value
CCC1(C[C@H](NC(=O)OC(c2ccccc2)C(F)(F)c2cccc(Cl)c2)C(=O)N[C@@H](C[C@@H]2CCNC2=O)C(=O)C(=O)NC2CC2)CC1 (stereo partly drawn)	0.001 µM
CCCC[C@H](NC(=O)OC(c1ccccc1)C(F)(F)c1cccc(Cl)c1)C(=O)NC(CC1CC(C)(C)NC1=O)C(=O)C(=O)NC1CC1 (stereo partly drawn)	1.39 µM
CCCC[C@H](NC(=O)OC(c1ccccc1)C(F)(F)c1cccc(Cl)c1)C(=O)N[C@@H](C[C@@H]1CCCNC1=O)C(=O)C(=O)NC1CC1 (stereo partly drawn)	0.01 µM
CCCC[C@H](NC(=O)OC(c1cccc(F)c1)C1(c2cccc(F)c2)CC1)C(=O)N[C@H](C=O)C[C@@H]1CCNC1=O (stereo partly drawn)	0.0021 µM
CCCC[C@H](NC(=O)O[C@H](c1ccc(F)cc1)C(F)(F)c1cccc(Cl)c1)C(=O)N[C@H](C=O)C[C@@H]1CCNC1=O	0.47 µM
CCC[C@H](NC(=O)OC(c1ccccc1)C(F)(F)c1cccc(F)c1)C(=O)N[C@@H](C[C@@H]1CCNC1=O)C(=O)C(=O)NC1CC1 (stereo partly drawn)	0.25 µM

====

target: SARS2 protease (Severe acute respiratory syndrome coronavirus 2); construct: SARS2 protease was added to a final concentration of 30 nM; test: SARS-CoV-2 protease inhibition assay (SARS2 FRET protease assay); type: biochemical; conditions: IC50 (μM), SARS2 protease 30 nM, peptide substrate 1.3 μM, 120 minutes at 37° C., compounds 20 μM to 0.075 nM
Property: IC50; scope: individual compounds

compound	tested_target	qualifier_symbol	IC50, nM
CCCC[C@H](NC(=O)O[C@H](c1ccccc1)C(F)(F)c1cccc(F)c1)C(=O)N[C@@H](C[C@@H]1CCNC1=O)C(=O)C(=O)NCC [Compound A284]	SARS2 protease (Severe acute respiratory syndrome coronavirus 2)	=	8
CC(C)C[C@H](NC(=O)O[C@@H](c1ccccc1)C(F)(F)c1cccc(Cl)c1)C(=O)N[C@H](C=O)C[C@@H]1CCNC1=O [Compound A72]	SARS2 protease (Severe acute respiratory syndrome coronavirus 2)	<	0.01
CCCC[C@H](NC(=O)O[C@H](c1ccccc1)C(F)(F)c1cccc(Cl)c1)C(=O)N[C@@H](C[C@@H]1CCNC1=O)C(OC(=O)CC)S(=O)(=O)O (stereo partly drawn) [Compound A214]	SARS2 protease (Severe acute respiratory syndrome coronavirus 2)	=	1860
CC(C)(c1cccc(Cl)c1)C(OC(=O)N[C@@H](Cc1ccc(Cl)c(Cl)c1)C(=O)N[C@H](C=O)C[C@@H]1CCNC1=O)c1ccccc1 (stereo partly drawn) [Compound A279]	SARS2 protease (Severe acute respiratory syndrome coronavirus 2)	=	423
O=C[C@H](C[C@@H]1CCNC1=O)NC(=O)[C@H](Cc1ccccc1)NC(=O)OC(C1CCCCC1)C(F)(F)c1cccc(Cl)c1 (stereo partly drawn) [Compound A254]	SARS2 protease (Severe acute respiratory syndrome coronavirus 2)	=	2
CCNC(=O)C(=O)[C@H](C[C@@H]1CCNC1=O)NC(=O)[C@H](CC1CCCC1)NC(=O)O[C@@H](c1ccccc1)C(F)(F)c1cccc(Cl)c1 [Compound A220]	SARS2 protease (Severe acute respiratory syndrome coronavirus 2)	=	183

====

target: SARS2 protease (Severe acute respiratory syndrome coronavirus 2, UniProt P0DTD1); construct: SARS2 protease was added to a final concentration of 30 nM; assay: SARS-CoV-2 protease inhibition assay (SARS2 FRET protease assay); format: biochemical; conditions: IC50 (μM), SARS2 protease 30 nM, peptide substrate 1.3 μM, 120 minutes at 37° C., compounds 20 μM to 0.075 nM
endpoint: IC50 (µM)

> print(dat)
                                   compound  endpoint  measured.value
1  CCC[C@H](NC(=O)O[C@H](c1ccccc1)C(F)(F)c1cccc(Cl)c1)C(=O)N[C@H](C=O)C[C@@H]1CCNC1=O      IC50           0.004
2  CCCC[C@H](NC(=O)OC(c1ccc(F)cc1)C(F)(F)c1cccc(Cl)c1)C(=O)N[C@@H](C[C@@H]1CCNC1=O)C(=O)C(=O)NC1CC1 (stereo partly drawn)      IC50           0.028
3  CC(C)C[C@H](NC(=O)OC(c1ccccc1)C1(c2cccc(Cl)c2)CCNCC1)C(=O)N[C@@H](C[C@@H]1CCNC1=O)C(=O)C(=O)NC1CC1 (stereo partly drawn)      IC50            1.42
